target: T1, monkey GPC3-His protein (monkey); assay: ELISA, monkey GPC3-His coated;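 further: Plate-coated antigen at 1 µg/mL, antibody binding 2 h at 37 °C, detected with HRP-labeled secondary antibody and TMB, absorbance at 450 nm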
T1 construct: Bought recombinant protein; also called monkey GPC3 protein
METRIC: OD450 at 100 nM (OD450)

1) F1.3.9 (antibody, human IgG1, kappa, V domains shown, Human-murine chimeric antibody) VH: QVQLQQPGTELVKPGASVKLSCKASGYTFTSYWIHWVKQRPGQGLEWIGNINPPNAGTNYNEKFKSKATLTVDKSSSTAYMQLSSLTSEDSAVYYCARGRWLLHDYWGQGTTLTVSS VL: DIQMTQSPASLSISVGETVTITCRASENIYSNLAWYQQKQGKSPQLLVYGTKNLAEGVPSRFSGSGSGTQYSLKINSLQSEDFGNYYCQHFWGTPYTFGGGTKLEILR; 1.82
2) F2.92.1 (antibody, human IgG1, kappa, V domains shown, Human-murine chimeric antibody) VH: QVQLQQSGAELVRPGASVKLSCKASGYIFSDYEIHWVKQTPVHGLECIGAVDPETGGTAYNQKFKGKATLTADKSSSTAYMELRSLTSEDSAVYFCTRFYSFAYWGQGTLVTVST VL: DVVMTQTPLSLPVSLGDQGSISCRSSQSLVHSNGNTYLQWYLQKPGQSPKLLIYKVSNRFSGVPDRFSGSGSGTDFTLKISRVEAEDLGVYFCCQSTHVLPTFGGGTKLEIKR; 2.34
3) F1.9.19 (antibody, human IgG1, kappa, V domains shown, Human-murine chimeric antibody) VH: DVQLQESGPGLVKPSQSLSLTCSVTGYSITSGYYWNWIRQFPGNRLEWMAYISYDGINNYNPSLKNRISIARDTSTNQFFLKLNSVTSEDTATYYCATTTEVALFDHWGQGTTLTVSS VL: DVLLTQTPLSLPVSLGDQASISCRSSQNIVHGNGNTYLEWFLQKPGQSPKLLIYKVSNRFSGVPDRFSGSGSGTDFTLKISRVEAEDLGLYYCFQASHVPWTFGGGTKLEIKR; 1.5
